Target: dopamine D2 receptor (Mus musculus)
Sequence (P61168 whole entry): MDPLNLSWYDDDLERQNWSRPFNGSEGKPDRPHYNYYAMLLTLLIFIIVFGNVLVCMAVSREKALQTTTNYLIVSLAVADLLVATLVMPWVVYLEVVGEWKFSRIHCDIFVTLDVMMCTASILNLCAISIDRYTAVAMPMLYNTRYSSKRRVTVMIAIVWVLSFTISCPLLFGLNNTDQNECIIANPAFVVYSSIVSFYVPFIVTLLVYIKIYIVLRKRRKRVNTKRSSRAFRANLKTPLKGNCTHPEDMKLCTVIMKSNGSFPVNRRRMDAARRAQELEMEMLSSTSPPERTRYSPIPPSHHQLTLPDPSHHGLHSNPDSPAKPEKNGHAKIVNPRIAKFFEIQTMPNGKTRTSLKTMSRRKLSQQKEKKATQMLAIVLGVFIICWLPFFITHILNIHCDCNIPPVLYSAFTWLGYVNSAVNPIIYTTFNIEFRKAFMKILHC
Assay: biochemical
Type: biochemical
Conditions: concentration that produces 50% of the maximal inhibition of twitch; mouse vas deferens; read-out: D2 A50
Protocol: Vasa deferentia from male BALB/C mice weighing approximately 30 g were removed and placed in isolated organ baths containing magnesium-free modified Krebs-Henseleit solution which was gassed with 95% O2 and 5% CO2 and maintained at 37° C. Tissues were set up under resting tension of 0.5 g and stimulated electrically at 60 volts, 0.1 Hz and 1 msec duration to produce a series of twitch responses. […]
pEC50: −log10 of the molar value.
Value Kind: pEC50

Compound	Observed Result
CCCN(CC1CCOC1)[C@H]1CCc2c(ccc(O)c2O)C1 (stereo partly drawn) [Example 15]	9.85
CCN(CCC1CCCO1)[C@H]1CCc2c(O)cccc2C1 (stereo partly drawn) [Example 25]	9.15
CCCN(CCOC1CCCC1)[C@H]1CCc2c(O)cccc2C1 [Example 16]	9.29
CCCN(CCCOC)[C@H]1CCc2c(O)cccc2C1 [Example 41, reference compound]	9.04
CCCN(CCOC1CC1)[C@H]1CCc2c(O)cccc2C1 [Example 17]	9.23
CCCN(CCC1CCCO1)[C@H]1CCc2c(ccc(O)c2O)C1 (stereo partly drawn) [Example 11]	8.89
CCCN(CCOC(C)CC)[C@H]1CCc2c(ccc(O)c2O)C1 (stereo partly drawn) [Example 5]	9.62
CCCN(CCOCC)[C@H]1CCc2c(ccc(O)c2O)C1 [Example 2]	9.38
CCCN(CCOC(C)C)[C@H]1CCc2c(ccc(O)c2O)C1.Cl [Example 1, hydrochloride]	9.83
CCCN(CCC1CCCCO1)[C@H]1CCc2c(O)cccc2C1 (stereo partly drawn) [Example 23]	9.36
CCCOCCN(CCC)[C@H]1CCc2c(ccc(O)c2O)C1 [Example 7]	9.10
CCCN(CCOC1CCCC1)[C@H]1CCc2c(ccc(O)c2O)C1 [Example 6]	9.79
CCCN(CCC1CCOC1)[C@H]1CCc2c(O)cccc2C1 (stereo partly drawn) [Example 24]	9.11
CCCN(CCOC)[C@H]1CCc2c(ccc(O)c2O)C1 [Example 4]	9.22
CCCCCOCCN(CCC)[C@H]1CCc2c(ccc(O)c2O)C1 [Example 10]	10.03
CCCN(CCC1CCOC1)[C@H]1CCc2c(ccc(O)c2O)C1 (stereo partly drawn) [Example 14]	9.68
CCCN(CC1CCOC1)[C@H]1CCc2c(O)cccc2C1.Cl (stereo partly drawn) [Example 21, hydrochloride]	9.01
CCCN(CC1CCCO1)[C@H]1CCc2c(O)cccc2C1 (stereo partly drawn) [Example 22]	8.66
CCCCOCCN(CCC)[C@H]1CCc2c(ccc(O)c2O)C1 [Example 8]	9.57
CCCN(CCC1CCCO1)[C@H]1CCc2c(O)cccc2C1 (stereo partly drawn) [Example 19]	9.56
CCCN(CC1CCCCO1)[C@H]1CCc2c(O)cccc2C1 (stereo partly drawn) [Example 20]	9.00

Measured values drawn from patent US5382596A for this set.
